The reported measurements were obtained from PubChem BioAssay AID1159580.

normalized growth: recorded values
- assay-details: chemical genetic growth profiling, strain panel (AID 1159580);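 further: tested at 20 µM; growth read once vehicle control cultures reached saturation at 30 °C; 1 = growth at the plate median or of vehicle wells; lower values mean less growth of the strain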
- stated-conditions: S. cerevisiae deletion strains, growth OD, locus YLR262C, strain YPT6, stronger effect = lower value
Among all 5,500 compounds or so, about 2,000 (36%) were called active. Roughly 18% stayed inconclusive and do not appear here. The list shows a part of the results.
Answer as a number with no unit attached.

Known results for compounds:
compound: O=C(CCCN1CCC(O)(c2ccc(Cl)cc2)CC1)c1ccc(F)cc1
measured-number: 1.37
//
compound: CN(C)CC[C@H](c1ccc(Cl)cc1)c1ccccn1
measured-number: 1
//
compound: CCOC(=O)/C(C#N)=C/Nc1ccc2c(c1)OCO2
measured-number: 0.816
//
compound: Cc1ccc(Sc2nc(C)c([N+](=O)[O-])c(C)c2C#N)cc1
measured-number: 0.732
//
compound: Oc1ccc2c3c1OC1[C@@H](O)CC[C@@]4(O)[C@@H](C2)N(CC2CCC2)CC[C@]314 (stereo not given in full)
measured-number: 1.01
//
compound: CCCCCCCCCCCCSc1nnc(N)s1
measured-number: 1

Entry under review: C[C@]12CCC(=O)C=C1CCc1ccc(O)cc12 . Reported normalized growth?
1.07

# repeat for O=C(O)CN(CCN(CC(=O)O)CC(=O)O)CC(=O)O
0.827

# repeat for CC(=O)c1ccccc1OC(=O)c1c(-c2c(Cl)cccc2Cl)noc1C
0.935

# repeat for COC(=O)C(N)CS (stereo not given)
0.943

====

- assay-details: chemical genetic growth profiling, strain panel (AID 1159580);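 further: tested at 20 µM; growth read once vehicle control cultures reached saturation at 30 °C; 1 = growth at the plate median or of vehicle wells; lower values mean less growth of the strain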
- stated-conditions: S. cerevisiae deletion strains, growth OD, locus YER133W, strain GLC7, stronger effect = lower value
Hit rate of the full screen: of about 5,500 compounds, about 2,000 (36%) were called active. Not shown: some 18% with an inconclusive outcome. The list shows a part of the results.
reported-property: normalized growth
Answer as a number with no unit attached.

Known results for compounds:
compound: N/C(=N/OC(=O)Nc1cccc(C(F)(F)F)c1)c1ccc(OC(F)(F)F)cc1
normalized growth: 0.893
//
compound: O=C(Nc1cc2ccccc2s1)N1CCN(Cc2c(F)cccc2Cl)CC1
normalized growth: 0.95
//
compound: O=C(O/N=C1/CCCc2[nH]c3ccccc3c21)C1CCCCC1
normalized growth: 0.888
//
compound: N#C/C(N=Cc1cc(Cl)cc(Cl)c1O)=C(\C#N)N=Cc1cc(Cl)cc(Cl)c1O
normalized growth: 0.725
//
compound: N#Cc1ccc2[nH]cc(CCN(Cc3ccccc3)Cc3ccccc3)c2c1
normalized growth: 0.964
//
compound: N/C(=N/OC(=O)c1ccc([N+](=O)[O-])cc1)c1c(Cl)cccc1Cl
normalized growth: 0.805
//
compound: CC1(C)C=Cc2cc(/C(N)=N\OC(=O)Nc3cccc(C(F)(F)F)c3)ccc2O1
normalized growth: 0.947
//
compound: OC(COCc1ccccc1)Cn1c2ccccc2c2ccccc21 (configuration not stated)
normalized growth: 0.876
//
compound: Cc1ccc(Sc2ncccc2NS(=O)(=O)c2ccc(Cl)cc2)cc1
normalized growth: 0.855
//
compound: O=C(NNc1cc(C(F)(F)F)cc(C(F)(F)F)c1)c1cnc2n(c1=O)CCS2
normalized growth: 0.977

Entry under review: Clc1cccc(Cl)c1C1CC(c2ccccc2)=Nc2ccccc2S1 (configuration not stated) . Reported normalized growth?
0.981

# repeat for Cc1cc(-c2onc(C)c2C(=O)Sc2ccccc2)no1
0.823

# repeat for CCOC(=O)NC(=S)Nc1ccc(C(C)(C)C)cc1NC(=S)NC(=O)OCC
0.934

# repeat for CC(C)(C)NC(=S)N/N=C\c1cc(Br)c(O)c(Br)c1
0.944

# repeat for ONC(=Nc1ccccc1Cl)c1ccccc1Cl
0.833

# repeat for O=C1/C(=C/c2c[nH]c3ccccc23)CSc2ccccc21
0.948

# repeat for C/C(=N/NC(N)=S)c1csc(-c2ccccc2)n1
0.791
